meta.source: ChEMBL document CHEMBL6078709

test system: SK-HEP1; assay: Antiproliferative activity against human SK-HEP1 cells assessed as inhibition of cell growth incubated for 72 hrs by sulforhodamine B assay; type: functional, cell-based; conditions: SK-HEP1, 72 h
Positions of bridges follow the written chain, without caps; N, C: chain ends. Non-standard residues stand in square brackets, D forms with d. Residues, ends and D or L forms follow the SMILES beside them. NMeY = CN[C@@H](Cc1ccc(O)cc1)C(=O)O
readout-name: IC50 (µM)

Examples with answers:
Query string: Fill in: IC50 of "CCC(=O)N[C@@H]1C(=O)N[C@@H](Cc2ccccc2)C(=O)N[C@H](CC(C)C)C(=O)N[C@@H](C(C)C)C(=O)N2CCC[C@H]2C(=O)N[C@@H](CC(C)C)C(=O)N(C)[C@@H](Cc2ccc(O)cc2)C(=O)N2CCCC[C@H]2C(=O)O[C@@H]1C" is ___
Result string: 17.4

Query string: Fill in: IC50 of CC(=O)N[C@@H]1C(=O)N[C@@H](Cc2ccccc2)C(=O)N[C@H](CC(C)C)C(=O)N[C@@H](C(C)C)C(=O)N2CCC[C@H]2C(=O)N[C@@H](CC(C)C)C(=O)N(C)[C@@H](Cc2ccc(O)cc2)C(=O)N2CCC[C@H]2C(=O)O[C@@H]1C (Ac-TF[dL]VPL[NMeY]P; ester 1-C) is ___
Result string: 19

I. CCC(=O)N[C@@H]1C(=O)N[C@@H](Cc2ccccc2)C(=O)N[C@H](CC(C)C)C(=O)N[C@@H](C(C)C)C(=O)N2CCC[C@H]2C(=O)N[C@@H](CC(C)C)C(=O)N(C)[C@@H](Cc2ccccc2)C(=O)N2CCC[C@H]2C(=O)O[C@@H]1C
II. COc1cc([C@@H]2c3cc4c(cc3[C@@H](O[C@@H]3O[C@@H]5CO[C@@H](C)O[C@H]5[C@H](O)[C@H]3O)[C@H]3COC(=O)[C@H]23)OCO4)cc(OC)c1O [ETOPOSIDE]
Query string: // returns I or II , whichever has the lower IC50 Reply briefly: the label of your chosen item.
Result string: II
